This collection of values is drawn from patent US9359308B2.

# target-system: full length active recombinant SYK enzyme (Homo sapiens)
# Construct: full length active recombinant SYK enzyme (Millipore, Calif.)
# assay: Inhibition of Syk tyrosine phosphorylation activity (LANCE TR-FRET kinase assay)
# test-context: activity in the Syk assays, class symbols
I'd be grateful if you could share measured IC50 for these entries.

Examples with their reported IC50 follow.
C[C@@H](Nc1cnc(C(N)=O)c(Nc2cc(C3CC3)ns2)n1)C(N)=O [Example 239]: 1 to 10 nM
COc1cncc(Nc2nc(N[C@H](CC(C)C)C(N)=O)cnc2C(N)=O)c1 [Example 323]: 1 to 10 nM
CC[C@@H](Nc1cnc(C(N)=O)c(Nc2ccc(N(C)C(C)=O)cc2)n1)C(N)=O [Example 161]: 100 to 1000 nM
CC[C@@H](Nc1cnc(C(N)=O)c(Nc2ccc(OC)c(OC)c2)n1)C(N)=O [Example 151]: 10 to 100 nM
NC(=O)c1ncc(N[C@@H]2CCCC[C@@H]2N)nc1Nc1ccc(-c2ncco2)cc1 [Example 445]: 1 to 10 nM

// next entry
Recorded result, CC(C)C[C@@H](Nc1cnc(C(N)=O)c(Nc2cncc(F)c2)n1)C(N)=O [Example 70] , IC50: 10 to 100 nM
